# study system: human MCH-2R (human, UniProt Q969V1 1-340)
# Sequence (Q969V1 whole entry): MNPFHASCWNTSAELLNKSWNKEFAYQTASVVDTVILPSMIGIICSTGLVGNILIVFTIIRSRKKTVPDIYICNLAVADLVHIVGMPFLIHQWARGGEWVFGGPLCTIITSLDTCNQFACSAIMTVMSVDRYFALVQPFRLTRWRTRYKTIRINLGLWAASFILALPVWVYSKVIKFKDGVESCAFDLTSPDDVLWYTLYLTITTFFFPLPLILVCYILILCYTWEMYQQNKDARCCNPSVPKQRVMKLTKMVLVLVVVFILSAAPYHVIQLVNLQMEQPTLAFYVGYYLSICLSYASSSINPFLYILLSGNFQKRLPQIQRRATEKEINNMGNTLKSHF
# protocol description: SPA, displacement of [125I]-[Phe13,Tyr19]-hMCH, MCH-2R membranes
Positions of bridges follow the written chain, without caps; N, C: chain ends. Non-standard residues stand in square brackets, D forms with d. No end group written: not given here. Nle = CCCC[C@H](N)C(=O)O
readout type: IC50 (nM)
Note: unit nM is implicit; provide only the numeric part.

I am curious: what IC50 value has been reported for [dR]C[Nle]LNRVYRPC-NH2 (disulfide 2-11 (inferred)) [SEQ. ID. NO. 32 (ΔAc, D-Arg^6, Nle^8, Asn^10 analog of Ac-hMCH(6-16)-NH2)] ?
250
